Assay: PK and tissue distribution assay, single oral dose
Type: in vivo, BALB/c mice
Conditions: BALB/c, mouse, heart, po, 25 mg/kg
measured-attribute: concentration at 4 h (nM)
A number alone suffices; assume nM.

Incoming: Would you mind telling me what concentration at 4 h value was observed for [2H]c1c([2H])c([2H])c(-c2ccc([C@H](Cn3ccnc3)NC(=O)c3ccc(-c4nnc(-c5ccccc5)o4)cc3)c(Cl)c2)c([2H])c1[2H] ?
Outgoing: 3000

----------
Assay: Microsomal stability assay, rat liver microsomes
Type: in vitro ADME, rat (male Sprague-Dawley)
Conditions: rat pooled liver microsomes 0.5 mg/mL, 1 μM test compound
measured-attribute: Clint (estimated intrinsic clearance), Rat (mL/min/kg body weight)
State the answer as a number, implicitly in mL/min/kg body weight.

Guide cases for Clint (estimated intrinsic clearance), Rat, answers given:
O=C(N[C@@H](Cn1ccnc1)c1ccc(-c2ccc(F)cc2)cc1F)c1ccc(-c2nnc(-c3ccccc3)o2)cc1 [VFV, reference compound] :: 17.7
[2H]c1c([2H])c([2H])c(-c2ccc([C@H](Cn3ccnc3)NC(=O)c3ccc(-c4nnc(-c5ccccc5)o4)cc3)c(Cl)c2)c([2H])c1[2H] [Compound 5] :: 131
O=C(N[C@@H](Cn1ccnc1)c1ccc(Cl)cc1Cl)c1ccc(-c2nnc(-c3ccc(OCC(F)(F)F)cc3F)o2)cc1 [Compound 8] :: 64.3

--- query ---
Incoming: Entry CS(=O)(=O)c1ccc(-c2ccc([C@H](Cn3ccnc3)NC(=O)c3ccc(-c4nnc(-c5ccccc5)o4)cc3)c(Cl)c2)cc1 [Compound 6] has what Clint (estimated intrinsic clearance), Rat?
Outgoing: 58.1

----------
Experiment: Microsomal stability assay, mouse liver microsomes
Assay type: in vitro ADME, mouse (male CD-1)
Conditions: mouse pooled liver microsomes 0.5 mg/mL, 1 μM test compound
Rule: Clint (estimated intrinsic clearance), Mouse below 200 mL/min/kg body weight gives 1, anything at or above gives 0.

Please review the entries below; each comes with its answer.
CS(=O)(=O)c1ccc(-c2ccc([C@H](Cn3ccnc3)NC(=O)c3ccc(-c4nnc(-c5ccccc5)o4)cc3)c(Cl)c2)cc1 :: 1
O=C(N[C@@H](Cn1ccnc1)c1c(F)cc(-c2ccc(F)cc2)cc1F)c1ccc(-c2nnc(-c3ccccc3)o2)cc1 :: 0
[2H]c1c([2H])c([2H])c(-c2ccc([C@H](Cn3ccnc3)NC(=O)c3ccc(-c4nnc(-c5ccccc5)o4)cc3)c(Cl)c2)c([2H])c1[2H] :: 0

Incoming: Input O=C(N[C@@H](Cn1ccnc1)c1ccc(-c2ccc(F)cc2)cc1F)c1ccc(-c2nnc(-c3ccccc3)o2)cc1 [VFV, reference compound] ; condition: Clint (estimated intrinsic clearance), Mouse strictly below 200 mL/min/kg body weight. Does it hold?
Outgoing: 1

Incoming: For this compound, is Clint (estimated intrinsic clearance), Mouse lower than 200 mL/min/kg body weight? O=C(N[C@@H](Cn1ccnc1)c1ccc(Cl)cc1Cl)c1ccc(-c2nnc(-c3ccc(F)c(F)c3)o2)cc1
Outgoing: 1

----------
Assay: Microsomal stability assay, human liver microsomes
Assay type: in vitro ADME
Conditions: predicted from Clint, Qh 21 mL/min/kg
measured-attribute: Clhep (hepatic clearance), Human (mL/min/kg body weight)
# number only, unit mL/min/kg body weight dropped from output

Incoming: Value lookup for Clhep (hepatic clearance), Human; key = O=C(N[C@@H](Cn1ccnc1)c1ccc(-c2ccc(F)cc2)cc1F)c1ccc(-c2nnc(-c3ccccc3)o2)cc1 [VFV, reference compound]
Outgoing: 12.3

Incoming: What value of Clhep (hepatic clearance), Human has been recorded for this entry: O=C(N[C@@H](Cn1ccnc1)c1ccc(-c2ccc(F)cc2)cc1Cl)c1ccc(-c2nnc(-c3ccccc3)o2)cc1 [VFV-Cl]
Outgoing: 8.35

Incoming: So what does the record say about Clhep (hepatic clearance), Human for O=C(N[C@@H](Cn1ccnc1)c1c(F)cc(-c2ccc(F)cc2)cc1F)c1ccc(-c2nnc(-c3ccccc3)o2)cc1 [Compound 7] ?
Outgoing: 10.1

Incoming: Which Clhep (hepatic clearance), Human is reported for this compound? O=C(N[C@@H](Cn1ccnc1)c1ccc(Cl)cc1Cl)c1ccc(-c2nnc(-c3ccc(OCC(F)(F)F)cc3F)o2)cc1 [Compound 8]
Outgoing: 9.24

Incoming: Which Clhep (hepatic clearance), Human is reported for this compound? CS(=O)(=O)c1ccc(-c2ccc([C@H](Cn3ccnc3)NC(=O)c3ccc(-c4nnc(-c5ccccc5)o4)cc3)c(Cl)c2)cc1 [Compound 6]
Outgoing: 7.46

Incoming: Returns the measured Clhep (hepatic clearance), Human for the input compound. Input: O=C(N[C@@H](Cn1ccnc1)c1ccc(-c2ccccc2)cc1Cl)c1ccc(-c2nnc(-c3ccccc3)o2)cc1 [Compound 4]
Outgoing: 10.5

----------
Test: Microsomal stability assay, human liver microsomes
Format: in vitro ADME
Conditions: human pooled liver microsomes 0.5 mg/mL, 1 μM test compound
measured-attribute: Clint (estimated intrinsic clearance), Human
The reply should read as a number followed by its unit.

O=C(N[C@@H](Cn1ccnc1)c1ccc(Cl)cc1Cl)c1ccc(-c2nnc(-c3ccc(OCC(F)(F)F)cc3F)o2)cc1 :: 16.5 mL/min/kg body weight
O=C(N[C@@H](Cn1ccnc1)c1ccc(-c2ccccc2)cc1Cl)c1ccc(-c2nnc(-c3ccccc3)o2)cc1 :: 20.9 mL/min/kg body weight
O=C(N[C@@H](Cn1ccnc1)c1c(F)cc(-c2ccc(F)cc2)cc1F)c1ccc(-c2nnc(-c3ccccc3)o2)cc1 :: 19.4 mL/min/kg body weight
O=C(N[C@@H](Cn1ccnc1)c1ccc(-c2ccc(F)cc2)cc1F)c1ccc(-c2nnc(-c3ccccc3)o2)cc1 [VFV, reference compound] :: 29.9 mL/min/kg body weight
[2H]c1c([2H])c([2H])c(-c2ccc([C@H](Cn3ccnc3)NC(=O)c3ccc(-c4nnc(-c5ccccc5)o4)cc3)c(Cl)c2)c([2H])c1[2H] :: 21.2 mL/min/kg body weight

The record that follows has no Clint (estimated intrinsic clearance), Human shown yet.
Incoming: Quick one: Clint (estimated intrinsic clearance), Human for CS(=O)(=O)c1ccc(-c2ccc([C@H](Cn3ccnc3)NC(=O)c3ccc(-c4nnc(-c5ccccc5)o4)cc3)c(Cl)c2)cc1 ?
Outgoing: 11.6 mL/min/kg body weight

----------
# Clint (estimated intrinsic clearance), Mouse annotations
Experiment: Microsomal stability assay, mouse liver microsomes
Type: in vitro ADME, mouse (male CD-1)
Settings: mouse pooled liver microsomes 0.5 mg/mL, 1 μM test compound
Please respond with the number in mL/min/kg body weight and leave the unit unwritten.

Would you please look over these solved cases?
O=C(N[C@@H](Cn1ccnc1)c1ccc(-c2ccccc2)cc1Cl)c1ccc(-c2nnc(-c3ccccc3)o2)cc1 :: 34.2
O=C(N[C@@H](Cn1ccnc1)c1ccc(-c2ccc(F)cc2)cc1Cl)c1ccc(-c2nnc(-c3ccccn3)o2)cc1 :: 105
O=C(N[C@@H](Cn1ccnc1)c1ccc(Cl)cc1Cl)c1ccc(-c2nnc(-c3ccc(OCC(F)(F)F)cc3F)o2)cc1 :: 87.7

Lab note: next compound to report on.
Incoming: So what does the record say about Clint (estimated intrinsic clearance), Mouse for O=C(N[C@@H](Cn1ccnc1)c1ccc(-c2ccc(F)cc2)cc1Cl)c1ccc(-c2nnc(-c3ccccc3)o2)cc1 ?
Outgoing: 59.8

----------
Test: Microsomal stability assay, rat liver microsomes
Format: in vitro ADME, rat (male Sprague-Dawley)
Conditions: predicted from Clint, Qh 70 mL/min/kg
measured-attribute: Clhep (hepatic clearance), Rat (mL/min/kg body weight)
All answers are understood in mL/min/kg body weight, so give the number only.

Below, each entry is followed by its recorded Clhep (hepatic clearance), Rat result.
O=C(N[C@@H](Cn1ccnc1)c1ccc(Cl)cc1Cl)c1ccc(-c2nnc(-c3ccc(OCC(F)(F)F)cc3F)o2)cc1 [Compound 8] :: 33.5
O=C(N[C@@H](Cn1ccnc1)c1ccc(-c2ccc(F)cc2)cc1Cl)c1ccc(-c2nnc(-c3ccccc3)o2)cc1 [VFV-Cl] :: 23.6
O=C(N[C@@H](Cn1ccnc1)c1c(F)cc(-c2ccc(F)cc2)cc1F)c1ccc(-c2nnc(-c3ccccc3)o2)cc1 [Compound 7] :: 31.1

From here, focus on the item given below.
Incoming: Dear colleague, I am looking for the recorded Clhep (hepatic clearance), Rat of the following molecule: CS(=O)(=O)c1ccc(-c2ccc([C@H](Cn3ccnc3)NC(=O)c3ccc(-c4nnc(-c5ccccc5)o4)cc3)c(Cl)c2)cc1 [Compound 6]
Outgoing: 31.7

----------
Recorded Plasma life time (time until the compound becomes undetectable) by entry
Experiment: PK and tissue distribution assay, single oral dose
Type: in vivo, BALB/c mice
Conditions: Balb/c mice, single oral dose 25 mg/kg

O=C(N[C@@H](Cn1ccnc1)c1ccc(-c2ccccc2)cc1Cl)c1ccc(-c2nnc(-c3ccccc3)o2)cc1 [Compound 4] :: <10 h
O=C(N[C@@H](Cn1ccnc1)c1ccc(-c2ccc(F)cc2)cc1Cl)c1ccc(-c2nnc(-c3ccccn3)o2)cc1 [Compound 2] :: 10 h
O=C(N[C@@H](Cn1ccnc1)c1ccc(-c2ccc(F)cc2)cc1F)c1ccc(-c2nnc(-c3ccccc3)o2)cc1 [VFV, reference compound] :: >24 h

Incoming: Item under review: [2H]c1c([2H])c([2H])c(-c2ccc([C@H](Cn3ccnc3)NC(=O)c3ccc(-c4nnc(-c5ccccc5)o4)cc3)c(Cl)c2)c([2H])c1[2H] [Compound 5] . Reported Plasma life time (time until the compound becomes undetectable)?
Outgoing: <16 h

Incoming: Quick one: Plasma life time (time until the compound becomes undetectable) for O=C(N[C@@H](Cn1ccnc1)c1c(F)cc(-c2ccc(F)cc2)cc1F)c1ccc(-c2nnc(-c3ccccc3)o2)cc1 [Compound 7] ?
Outgoing: >24 h
